Measured values drawn from patent US6605619B1 for this set.

# Test Method Notes: EPR signal of nitroxides exposed to O2 flux formed by HX/XO (spin-loss)
# Assay type: biochemical
# Assay Setup: % from total R′RNO + R′RNOH after exposure to 5 mM HX + 0.03 U/ml XO in air-saturated PBS pH 7.2
Reported Steady state EPR signal (%) by item:
Report only the number, with the unit % understood.

Known results for compounds:
CC1(C)CC(O)CC(C)(C)N1[O] [TEMPOL] : 100
CC1(C)CCCC(C)(C)N1[O] [TEMPO, 2,2,6,6-tetramethylpiperidine-1-oxyl] : 100

Q: Bench note: what Steady state EPR signal (%) did CC1(C)CN([O])C2(CCCCC2)O1 [CHD] show?
A: 30

Q: Then CCC1(C)OC(C)(C)CN1[O] (stereo not shown) [OXANO] ?
A: 50

* * *

# Test Method Notes: SOD-inhibitable ferricytochrome c reduction assay, rate constants of reaction with O2 (SOD-like activity)
# Assay type: biochemical
# Assay Setup: low ionic strength (10 mM HEPES), pH 7.0, 22° C.
Marks after values point to notes of the source that are not given here.
# reported kR′RNO + O2; entries follow

CC1(C)CCCC(C)(C)N1[O] [TEMPO, 2,2,6,6-tetramethylpiperidine-1-oxyl] : 1.3 × 10^6 M − 1^s − 1
CCC1(C)OC(C)(C)CN1[O] (stereo not shown) [OXANO] : 1.1 × 10^3 M − 1^s − 1
CC1(C)CC(O)CC(C)(C)N1[O] [TEMPOL] : 3.4 × 10^5 M − 1^s − 1

Now for the compound whose kR′RNO + O2 we want.
Q: Could you tell me which kR′RNO + O2 is on file for CC1(C)CN([O])C2(CCCCC2)O1 [CHD] ?
A: 3.5 × 10^3 M − 1^s − 1
